As shown below, each of these compounds has a reported melting point value.
Quantity Measured: melting point

{"Compound": "Cc1nc2c(F)c(F)ccc2cc1C1=NC(Cc2ccc(F)cc2)CC(C)(C)O1 (stereo not drawn) [E-24]", "Observed Result": "128 to 132 °C"}
{"Compound": "CC1(C)CC(C)(C(F)(F)c2ccccc2)N=C(c2cnc3c(F)cccc3c2)O1 (stereo not drawn) [E-14]", "Observed Result": "101 to 105 °C"}
{"Compound": "C[C@@]1(Cc2ccccc2)C[C@@](C)(CCl)OC(c2cnc3c(F)cccc3c2)=N1 [E-10]", "Observed Result": "125 to 130 °C"}
{"Compound": "Fc1ccc2cc(C3=NC(Cc4ccccc4)CC4(CCC4)O3)cnc2c1F (stereo not drawn) [E-23]", "Observed Result": "159 to 162 °C"}
{"Compound": "CC1(C)CC(Cc2ccccc2)N=C(c2cnc3c(F)cccc3c2)O1 (stereo not drawn) [E-13]", "Observed Result": "90 to 92 °C"}
{"Compound": "CC1(C)CC(Cc2ccc(F)cc2)N=C(c2cnc3c(F)c(F)ccc3c2)O1 (stereo not drawn) [F-7]", "Observed Result": "117 to 119 °C"}
{"Compound": "CC1(C)CC(Cc2ccccc2)N=C(c2cnc3c(F)c(F)ccc3c2)O1 (stereo not drawn) [E-8]", "Observed Result": "93 to 96 °C"}
{"Compound": "CC1(C)CC(Cc2ccccc2)N=C(c2cnc3c(F)c(F)ccc3c2)O1 (stereo not drawn) [F-6]", "Observed Result": "102 to 105 °C"}
{"Compound": "CC1(Cc2ccccc2)CC(C)(C)OC(c2cnc3c(F)cccc3c2)=N1 (stereo not drawn) [E-17]", "Observed Result": "115 to 116 °C"}
{"Compound": "CC1(C)CC(Cc2cccc(F)c2)N=C(c2cnc3c(F)c(F)ccc3c2)O1 (stereo not drawn) [E-19]", "Observed Result": "95 to 98 °C"}
{"Compound": "CC1(C)CC(Cc2ccccc2)N=C(c2cc3cccc(F)c3nc2F)O1 (stereo not drawn) [E-30]", "Observed Result": "105 to 107 °C"}
{"Compound": "CC1(C)CC(Cc2ccccc2)N=C(c2cnc3c(F)c(Cl)ccc3c2)O1 (stereo not drawn) [E-29]", "Observed Result": "135 to 137 °C"}
{"Compound": "CC1(C)CC(Cc2ccc(F)cc2)N=C(c2cnc3c(F)c(F)ccc3c2)O1 (stereo not drawn) [E-18]", "Observed Result": "118 to 121 °C"}
{"Compound": "Cc1cccc2cc(C3=NC(Cc4ccccc4)CC(C)(C)O3)cnc12 (stereo not drawn) [E-4]", "Observed Result": "120 to 122 °C"}
{"Compound": "CC1(C)CC(Cc2ccccc2)N=C(c2cnc3c(C#N)c(F)ccc3c2)O1 (stereo not drawn) [E-28]", "Observed Result": "126 to 133 °C"}
{"Compound": "Fc1ccc2cc(C3=NC(Cc4ccccc4)CC4(CCCC4)O3)cnc2c1Cl (stereo not drawn) [E-35]", "Observed Result": "150 to 151 °C"}
{"Compound": "Fc1ccc2cc(C3=NC(Cc4ccccc4)CC(CI)O3)cnc2c1F (stereo not drawn) [E-26]", "Observed Result": "137 to 139 °C"}
{"Compound": "CC1(Cc2ccccc2)CC(C)(C)OC(c2cnc3c(F)cccc3c2)=N1 (stereo not drawn) [F-2]", "Observed Result": "111 to 112 °C"}
{"Compound": "CC1(C)CC(Cc2ccccc2)N=C(c2cnc3c(F)c(F)ccc3c2)S1 (stereo not drawn) [E-6]", "Observed Result": "153 to 155 °C"}
{"Compound": "CC1(Cc2ccccc2)CC(C)(C)OC(c2cnc3c(F)cccc3c2)=N1 (stereo not drawn) [F-1]", "Observed Result": "109 to 111 °C"}
{"Compound": "CC1(C)CC(Cc2ccccc2)N=C(c2cnc3c(Cl)cccc3c2)O1 (stereo not drawn) [E-3]", "Observed Result": "150 to 152 °C"}
